Numbers sourced from patent US20100190832A1.

molecular target: WT-TTR (Homo sapiens, UniProt P02766); construct: made in house; test: Stagnant acid-mediated TTR aggregation (fibril formation) assay, turbidity at 340 nm; type: biochemical; settings: 72 h, biphenyl ether 50 μM, WT-TTR 7.2 μM; read-out: % FF at 50 μM
# key: entry, value: remaining activity at 50 µM
I'd appreciate it if you included the unit after the number.

COc1cc(CO)ccc1Oc1ccc([N+](=O)[O-])cc1 ... 89.5%
COc1cc(COC(C)=O)ccc1Oc1ccc([N+](=O)[O-])cc1[N+](=O)[O-] ... 69%
COc1cc(CCl)ccc1Oc1ccc([N+](=O)[O-])cc1[N+](=O)[O-] ... 79%

Q: Provide remaining activity at 50 µM value for the following compound: COc1cc(C=O)ccc1Oc1ccccc1
Result: 0%

Q: Provide remaining activity at 50 µM value for the following compound: COc1cc(CCl)ccc1Oc1ccc(Cl)cc1Cl
Result: 0%

Q: Provide remaining activity at 50 µM value for the following compound: OCc1ccc(Oc2ccc(Cl)cc2Cl)c(O)c1
Result: 11.5%

Q: Provide remaining activity at 50 µM value for the following compound: COc1cc(C=O)ccc1Oc1ccc([N+](=O)[O-])cc1[N+](=O)[O-]
Result: 66%

Q: Provide remaining activity at 50 µM value for the following compound: COc1cc(CCl)ccc1Oc1ccccc1 [Compound 8, 3-Methoxy-4-phenoxybenzyl chloride]
Result: 0%
